tested_target: N6-adenosine-methyltransferase catalytic subunit (Homo sapiens, UniProt Q86U44)
Sequence (Q86U44 whole entry): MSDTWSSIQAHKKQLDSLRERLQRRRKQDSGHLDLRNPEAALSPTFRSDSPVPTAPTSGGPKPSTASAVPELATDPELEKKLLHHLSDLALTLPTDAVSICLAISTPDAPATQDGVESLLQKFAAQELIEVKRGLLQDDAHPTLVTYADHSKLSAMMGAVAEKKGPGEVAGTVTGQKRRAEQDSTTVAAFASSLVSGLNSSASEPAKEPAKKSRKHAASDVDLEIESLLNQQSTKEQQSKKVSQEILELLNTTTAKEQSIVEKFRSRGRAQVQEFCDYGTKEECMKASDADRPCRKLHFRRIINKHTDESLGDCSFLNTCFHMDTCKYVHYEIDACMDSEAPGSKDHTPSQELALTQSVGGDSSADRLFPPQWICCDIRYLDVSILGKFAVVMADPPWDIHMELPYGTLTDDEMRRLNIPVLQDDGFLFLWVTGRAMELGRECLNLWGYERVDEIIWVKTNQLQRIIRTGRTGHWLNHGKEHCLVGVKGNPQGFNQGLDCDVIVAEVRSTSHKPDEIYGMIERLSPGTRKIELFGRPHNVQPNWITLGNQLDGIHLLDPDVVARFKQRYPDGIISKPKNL
assay_protocol: Binding affinity to METTL3 (unknown origin) assessed as dissociation constant
readout_kind: Kd (µM)

1. C/C(=N\N=C(/N)S)c1ccccc1    3.31
2. C/C(=N\NC(N)=S)c1ccc(F)cc1    2.84

These measurements were taken from ChEMBL document CHEMBL5584331.
